Origin of measurements: PubChem BioAssay (NCI)

Tested on: OVCAR-8 ovarian
assay: NCI-60 one-dose screen, 48 h (100 = growth as untreated, 0 = no growth, -100 = all killed)
measurement conditions: 10 µM unless noted
This is part of a sample that, as a whole, favours compounds with a hit. Of some 83,000 tested, about 20% had one in any assay.
Mark each entry satisfied if its growth sits below 30%, and not satisfied for all others.

Threshold test, growth < 30%: `COc1cc(CNC(=O)Cc2ccccc2)ccc1OCc1cn(-c2ccc(F)cc2)nn1`
not satisfied

Threshold test, growth < 30%: `COc1ccc(/C=C2\CCC/C(=C\c3ccc(OC)c(OC)c3)C2=O)cc1OC`
satisfied

Threshold test, growth < 30%: COc1cc(C2C3=C(COC3=O)N(CCO)c3cc4c(cc32)OCCO4)cc(OC)c1O (stereo not given)
satisfied

Threshold test, growth < 30%: `O=C(CSc1ccc2nnc(-c3cccc(F)c3)n2n1)Nc1ccc2c(c1)OCO2`
not satisfied

Threshold test, growth < 30%: `COC(=O)/C(CCC=C(C)C)=C1\[C@@H](OC(C)=O)C[C@@]2(C)[C@H]1C[C@@H](O)[C@H]1[C@@]3(C)CC[C@H](NC(=O)c4cnccn4)[C@@H](C)[C@@H]3CC[C@@]12C`
not satisfied

Threshold test, growth < 30%: `CCCCN1CCN(c2ccc3nc(-c4ccc5nc(-c6ccc(OC)c(OC)c6)[nH]c5c4)[nH]c3c2)CC1`
satisfied

Threshold test, growth < 30%: `CCOC(=O)c1cc2c(n1Cc1ccccc1)-c1oncc1CCC2`
not satisfied

Threshold test, growth < 30%: `O=C(c1ccccc1)N(CCc1ccc(Cl)cc1)C(=S)N(C(=O)c1ccccc1)c1ccccc1`
not satisfied

Threshold test, growth < 30%: `Nc1nc(-c2ccccc2Br)nn1-c1nc2ccccc2s1`
not satisfied

---

Answer each item with its documented growth.
Test system: K-562 leukemia
assay: NCI-60 one-dose screen, 48 h (100 = growth as untreated, 0 = no growth, -100 = all killed)
measurement conditions: 10 µM unless noted
This is part of a sample that, as a whole, favours compounds with a hit. Of some 83,000 tested, about 20% had one in any assay.
Express it in %; write the number only.

I would be grateful if you could share the reported growth for `CCN1CCN(c2cc(C)c3cc(NC(=O)c4ccc(OC)c(OC)c4)ccc3n2)CC1` .
7.23

I would be grateful if you could share the reported growth for `N#C/C(=C\c1c(-c2ccccc2)[nH]c2ccccc12)C(=O)c1ccccc1` .
21.6

I would be grateful if you could share the reported growth for `CCOc1ccc(-c2nonc2NC(=O)c2cccc(C)c2)cc1OCC` .
11

I would be grateful if you could share the reported growth for `O=C1/C(=C/c2ccc(O)cc2)COc2ccc(O)cc21` .
55.9

I would be grateful if you could share the reported growth for `NNC(=O)CNC(=O)Nc1n[nH]c(=S)s1` .
90.3

I would be grateful if you could share the reported growth for `O=C(/C=C/c1ccc(C(F)(F)F)cc1)c1ccc(Nc2nc(NCCO)nc(N3CCOCC3)n2)cc1` .
5.46

I would be grateful if you could share the reported growth for `O=C(Nc1ccc(-c2nc3cc4ccccc4cc3[nH]2)cc1)c1cccc(Br)c1` .
26.7

I would be grateful if you could share the reported growth for `CCN(CCO)CCNc1ccc(C)c2sc3cc(Cl)ccc3c(=O)c12` .
-43.6

I would be grateful if you could share the reported growth for `COc1ccc(/C=C/C(=O)c2ccc(Nc3nc(NCCO)nc(Nc4ccc(Cl)cc4)n3)cc2)cc1` .
62.3

I would be grateful if you could share the reported growth for Nc1ccn(C2O[C@H](CO)[C@@H](O)[C@H]2O)c(=O)n1 (stereo not given in full) .
74.3
